- procedure.details: Effective free therapeutic plasma concentration (EFTPC): the concentration of unbound compund in the blood plasma at therapeutic dose (mean of range)
- Format: ADME, organism-based
- condition.label: human, in vivo
Known EFTPC of a selection of compounds
A complete answer gives the number followed by the unit.

What value of measured EFTPC is listed for Cc1nc2n(c(=O)c1CCN1CCC(c3noc4cc(F)ccc34)CC1)CCCC2 ?
1.21 nM

Entry CC[C@H]1[C@@H]2C[C@H]3[C@@H]4N(C)c5ccccc5[C@]45C[C@@H]([C@@H]2[C@H]5O)N3[C@@H]1O please
900 nM

Entry CN(CCOc1ccc(NS(C)(=O)=O)cc1)CCc1ccc(NS(C)(=O)=O)cc1 [DOFETILIDE] please
1.2 nM

Entry CC(C)COCC(CN(Cc1ccccc1)c1ccccc1)N1CCCC1 (centres undefined) please
21.5 nM
